assayed system: T1, recombinant truncated mouse furin (mouse, UniProt P23188 108-714, N-glycosylated at two of three potential sites)
T1 construct: extracellular domain; Purified by ion exchange and gel permeation; also called recombinant furin; recombinant mouse furin
T1 sequence (P23188 108-714): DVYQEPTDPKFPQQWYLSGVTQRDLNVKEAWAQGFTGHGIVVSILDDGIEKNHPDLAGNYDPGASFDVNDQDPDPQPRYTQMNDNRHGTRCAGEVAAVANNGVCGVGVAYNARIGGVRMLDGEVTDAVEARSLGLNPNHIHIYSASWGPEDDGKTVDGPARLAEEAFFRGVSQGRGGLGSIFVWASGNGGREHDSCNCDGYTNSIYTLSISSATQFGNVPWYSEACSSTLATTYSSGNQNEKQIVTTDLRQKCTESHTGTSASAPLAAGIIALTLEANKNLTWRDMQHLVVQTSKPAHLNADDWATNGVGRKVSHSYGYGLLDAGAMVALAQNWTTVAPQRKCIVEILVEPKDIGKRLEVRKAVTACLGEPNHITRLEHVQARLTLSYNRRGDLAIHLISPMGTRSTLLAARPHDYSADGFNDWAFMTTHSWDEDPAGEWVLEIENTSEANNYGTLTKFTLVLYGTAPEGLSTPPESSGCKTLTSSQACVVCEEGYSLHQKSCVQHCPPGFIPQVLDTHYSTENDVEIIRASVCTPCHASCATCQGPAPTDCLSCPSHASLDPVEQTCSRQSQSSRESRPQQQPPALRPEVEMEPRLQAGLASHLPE
experiment notes: enzyme inhibition, pERTKR-MCA hydrolysis (fluorescence), competitive Ki
Description: Inhibition of Furin, PACE4, PC1 and PC2 by Different L-Polyarginine Peptides. Each value represents the mean ± S.D. determined from three independent experiments.
Non-standard residues stand in square brackets, D forms with d. No end group written: not given here.
readout label: pKi
pKi is a log-scale quantity: -log10 of the concentration expressed in molar.

[[record]]
binder = "RRRRRRRR (no terminal modifications; also called octamer) [Octa-L-arginine]"
readout_number = 7.21


[Q] Given the entry [dR][dR][dR][dR][dR][dR] (also called D6R; D-hexa-arginine) [Hexa-D-arginine] , report its measured pKi.
[A] 6.97

[Q] Given the entry RRRRRRR (no terminal modifications; also called heptamer) [Hepta-L-arginine] , report its measured pKi.
[A] 7.17

[Q] Given the entry H-RRRRRR-OH (no terminal modifications; also called hexamer) [Hexa-L-arginine] , report its measured pKi.
[A] 6.94
